Reported pest or weed control at 5000 µg/mL, 33 µg/cm2 values for a set of compounds
test system: Watergrass (Echinochloa); assay: Post-Emergent Test, herbicidal effectiveness; format: in vivo; conditions: post-emergence, 504 h, 33 micrograms per cm^2, 3 weeks, 0-to-100 scale, read-out: Herbicidal Effectiveness, % Control Post, W

[[record]]
compound = "CSc1nnc(CNc2c(C)cccc2C)o1 [Compound 24A]"
readout_value = "0%"

[[record]]
compound = "CCc1cccc(C)c1N(Cc1nnc(C(C)C)[nH]1)C(=O)CCl [Compound 16B]"
readout_value = "75%"

[[record]]
compound = "Cc1nnc(CNc2ccccc2C)[nH]1 [Compound 25A]"
readout_value = "0%"


Can you look up the measured pest or weed control at 5000 µg/mL, 33 µg/cm2 of Cc1nnc(CN(C(=O)CCl)c2cccc(C(F)(F)F)c2)[nH]1 [Compound 26B] for me? 0%

// repeat for Cc1cccc(C)c1N(CCc1nnc[nH]1)C(=O)CCl and report 63%

// repeat for Cc1cccc(C)c1N(Cc1nnc[nH]1)C(=O)CCl and report 75%

// repeat for CCc1nnc(CN(C(=O)CCl)c2c(C)cccc2CC)[nH]1 [Compound 15B] and report 80%

// repeat for Cc1cccc(C)c1N(C(=O)CCl)C(C)c1nnc[nH]1 (stereo not shown) [Compound 12B] and report 80%

// repeat for Cc1nnc(C(C)Nc2c(C)cccc2C)[nH]1 (stereo not shown) [Compound 11A] and report 0%

// repeat for Cc1cccc(C)c1NCc1nnc(S)n1C and report 0%

----------
Reported pest or weed control at 5000 µg/mL, 33 µg/cm2 values for a set of compounds
system: Pigweed (Amaranthus retroflexus); assay: Post-Emergent Test, herbicidal effectiveness; assay type: in vivo; conditions: post-emergence, 504 h, 33 micrograms per cm^2, 3 weeks, 0-to-100 scale, read-out: Herbicidal Effectiveness, % Control Post, P
Numeric answer only, unit % assumed.

Known pest or weed control at 5000 µg/mL, 33 µg/cm2 results, listed for orientation:
[[record]]
compound = "Cc1nnc(CNc2ccccc2C)[nH]1 [Compound 25A]"
assay_system = "Pigweed (Amaranthus retroflexus)"
readout_value = 0

[[record]]
compound = "Cc1nc(CNc2c(C)cccc2C)n[nH]1"
assay_system = "Pigweed (Amaranthus retroflexus)"
readout_value = 0

[[record]]
compound = "Cc1nnc(CNc2c(C)cccc2Cl)[nH]1 [Compound 22A]"
assay_system = "Pigweed (Amaranthus retroflexus)"
readout_value = 0

[[record]]
compound = "Cc1nnc(CN(C(=O)CCl)c2c(C)cccc2Cl)[nH]1 [Compound 22B]"
assay_system = "Pigweed (Amaranthus retroflexus)"
readout_value = 75

[[record]]
compound = "CCc1cccc(C)c1NCc1nnc[nH]1 [Compound 17A]"
assay_system = "Pigweed (Amaranthus retroflexus)"
readout_value = 0


Can you look up the measured pest or weed control at 5000 µg/mL, 33 µg/cm2 of CCc1cccc(CC)c1NCc1nnc(C)[nH]1 for me? 0

----------
Reported pest or weed control at 33 µg/cm2 values for a set of molecules
test system: Lambsquarter (Chenopodium album); assay: Pre-Emergent Test, herbicidal effectiveness; assay type: in vivo; settings: pre-emergence, 504 h, 33 micrograms per cm^2, 3 weeks, 0-to-100 scale, read-out: Herbicidal Effectiveness, % Control Pre, L

Known pest or weed control at 33 µg/cm2 results, listed for orientation:
[[record]]
molecule = "CCc1cccc(CC)c1N(Cc1nnc[nH]1)C(=O)CCl [Compound 20B]"
readout_value = "97%"

[[record]]
molecule = "CCc1cccc(C)c1N(Cc1nnc(C(C)C)[nH]1)C(=O)CCl [Compound 16B]"
readout_value = "100%"

[[record]]
molecule = "Cc1cccc(C)c1N(Cc1nnc(S)[nH]1)C(=O)CCl [Compound 18B]"
readout_value = "0%"

[[record]]
molecule = "CCc1cccc(C)c1N(Cc1nnc[nH]1)C(=O)CCl [Compound 17B]"
readout_value = "100%"

[[record]]
molecule = "CCc1cccc(C)c1N(Cc1nnc(C)o1)C(=O)CCl"
readout_value = "10%"


Can you look up the measured pest or weed control at 33 µg/cm2 of CCc1cccc(C)c1N(Cc1nnc(SC)n1C)C(=O)CCl [Compound 21B] for me? 0%

// repeat for CCc1cccc(CC)c1N(Cc1nnc(SC)n1C)C(=O)CCl [Compound 23B] and report 0%

// repeat for Cc1nc(CNc2c(C)cccc2C)n[nH]1 and report 0%

// repeat for Cc1nnc(C(C)Nc2c(C)cccc2C)[nH]1 (stereo not drawn) [Compound 11A] and report 0%

// repeat for CSc1nnc(CN(C(=O)CCl)c2c(C)cccc2C)n1C [Compound 14B] and report 0%

// repeat for Cc1nnc(CCNc2c(C)cccc2C)[nH]1 [Compound 10A] and report 0%

// repeat for Cc1nnc(CNc2ccc(Cl)c(Cl)c2)[nH]1 [Compound 27A] and report 0%

----------
test system: Crabgrass (Digitaria sanguinalis); assay: Post-Emergent Test, herbicidal effectiveness; assay type: in vivo; settings: post-emergence, 504 h, 33 micrograms per cm^2, 3 weeks, 0-to-100 scale, read-out: Herbicidal Effectiveness, % Control Post, C
Reported pest or weed control at 5000 µg/mL, 33 µg/cm2 values for a set of molecules
Numeric answer only, unit % assumed.

Known pest or weed control at 5000 µg/mL, 33 µg/cm2 results, listed for orientation:
[[record]]
molecule = "Cc1nnc(CN(C(=O)CCl)c2c(C)cccc2C)[nH]1"
u = "%"
readout_value = 20

[[record]]
molecule = "Cc1nnc(CCNc2c(C)cccc2C)[nH]1 [Compound 10A]"
u = "%"
readout_value = 0

[[record]]
molecule = "CCc1cccc(CC)c1N(Cc1nnc(SC)n1C)C(=O)CCl [Compound 23B]"
u = "%"
readout_value = 0

[[record]]
molecule = "CCc1cccc(CC)c1N(Cc1nnc[nH]1)C(=O)CCl [Compound 20B]"
u = "%"
readout_value = 30

[[record]]
molecule = "Cc1nnc(CN(C(=O)CCl)c2c(C)cccc2C)o1"
u = "%"
readout_value = 0


Can you look up the measured pest or weed control at 5000 µg/mL, 33 µg/cm2 of CCc1cccc(C)c1NCc1nnc(SC)n1C [Compound 21A] for me? 0

// repeat for CCc1cccc(C)c1NCc1nnc(S)n1C and report 0

// repeat for Cc1cccc(C)c1N(Cc1nnc[nH]1)C(=O)CCl and report 70

// repeat for Cc1nnc(C(C)N(C(=O)CCl)c2c(C)cccc2C)[nH]1 (stereo not shown) [Compound 11B] and report 55

// repeat for CCc1cccc(C)c1NCc1nnc(C(C)C)[nH]1 [Compound 16A] and report 0

// repeat for Cc1nc(CNc2c(C)cccc2C)n[nH]1 and report 0

// repeat for CCc1nnc(CNc2c(CC)cccc2CC)[nH]1 and report 0

// repeat for Cc1cccc(C)c1NCc1nnc(S)n1C and report 0

// repeat for Cc1nnc(CCN(C(=O)CCl)c2c(C)cccc2C)[nH]1 [Compound 10B] and report 40

// repeat for CCc1cccc(C)c1N(Cc1nnc(C)o1)C(=O)CCl and report 20

----------
test system: Lambsquarter (Chenopodium album); test: Post-Emergent Test, herbicidal effectiveness; format: in vivo; conditions: post-emergence, 504 h, 33 micrograms per cm^2, 3 weeks, 0-to-100 scale, read-out: Herbicidal Effectiveness, % Control Post, L
Reported pest or weed control at 5000 µg/mL, 33 µg/cm2 values for a set of compounds
Numeric answer only, unit % assumed.

Known pest or weed control at 5000 µg/mL, 33 µg/cm2 results, listed for orientation:
[[record]]
compound = "CCc1cccc(C)c1N(Cc1nnc[nH]1)C(=O)CCl [Compound 17B]"
readout_value = 65

[[record]]
compound = "Cc1cccc(C)c1NCc1nnc(S)[nH]1 [Compound 18A]"
readout_value = 0

[[record]]
compound = "Cc1nnc(CN(C(=O)CCl)c2c(C)cccc2C)o1"
readout_value = 0


Can you look up the measured pest or weed control at 5000 µg/mL, 33 µg/cm2 of Cc1nnc(CNc2c(C)cccc2C)o1 for me? 0

// repeat for Cc1nnc(CCNc2c(C)cccc2C)[nH]1 [Compound 10A] and report 0

// repeat for CCc1cccc(C)c1NCc1nnc(S)n1C and report 0

// repeat for Cc1nnc(CNc2ccccc2C)[nH]1 [Compound 25A] and report 0

// repeat for CCc1cccc(C)c1NCc1nnc(C(C)C)[nH]1 [Compound 16A] and report 0

// repeat for Cc1nnc(CN(C(=O)CCl)c2ccccc2C)[nH]1 [Compound 25B] and report 0

// repeat for CSc1nnc(CNc2c(C)cccc2C)o1 [Compound 24A] and report 0

// repeat for CCc1cccc(CC)c1N(Cc1nnc(SC)n1C)C(=O)CCl [Compound 23B] and report 0

// repeat for Cc1nnc(CCN(C(=O)CCl)c2c(C)cccc2C)[nH]1 [Compound 10B] and report 25

// repeat for CCc1cccc(CC)c1NCc1nnc(C)[nH]1 and report 0

// repeat for CCc1cccc(C)c1NCc1nnc[nH]1 [Compound 17A] and report 0

// repeat for CCc1cccc(CC)c1NCc1nnc[nH]1 [Compound 20A] and report 0

// repeat for Cc1nnc(CN(C(=O)CCl)c2ccc(Cl)c(Cl)c2)[nH]1 [Compound 27B] and report 0

// repeat for Cc1nnc(CN(C(=O)CCl)c2c(C)cccc2Cl)[nH]1 [Compound 22B] and report 20

// repeat for CCc1cccc(C)c1N(Cc1nnc(C)o1)C(=O)CCl and report 0

// repeat for Cc1nnc(CN(C(=O)CCl)c2c(C)cccc2C)[nH]1 and report 50

// repeat for Cc1cccc(C)c1N(C(=O)CCl)C(C)c1nnc[nH]1 (stereo not shown) [Compound 12B] and report 45

// repeat for CSc1nnc(CN(C(=O)CCl)c2c(C)cccc2C)o1 [Compound 24B] and report 0

// repeat for CCc1cccc(C)c1NCc1nnc(SC)n1C [Compound 21A] and report 0
